B1: Azoarcus group I ribozyme (parent)
chain: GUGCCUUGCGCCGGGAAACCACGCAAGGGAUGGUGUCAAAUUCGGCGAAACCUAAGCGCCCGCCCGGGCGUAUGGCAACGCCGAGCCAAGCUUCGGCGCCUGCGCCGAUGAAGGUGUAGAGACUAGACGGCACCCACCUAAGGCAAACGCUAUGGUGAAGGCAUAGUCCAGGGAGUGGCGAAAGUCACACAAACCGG

# Variants of: B1
# assay-info: reverse-splicing fitness (ratio to wild type); higher = more active; in vitro selection; Mg2+ level not given
Could you please report measured reverse-splicing fitness for the items listed next?

Entry C82U A111C A120C A145U C150A has what reverse-splicing fitness?
0.0082

Please give the result for C82G A111C A145G C150A C169U U176C too.
0.0161

Please give the result for C82U A120G U176G too.
0.00399

Please give the result for C82G A111G A120C U176G too.
0.011

Please give the result for C82U A120U A145C C169G U176G too.
0.00143

Please give the result for A111U A120C A145U C150G C169A too.
0.00829

Please give the result for C82A A111C A120U C150U C169U U176A too.
0.00738

Please give the result for C82A A111U U176G too.
0.026

Please give the result for C82A A145G C150G too.
0.0693

Please give the result for C82U A120G A145G C150U C169G U176C too.
0.0207

Please give the result for C82U A111C A145U C169U too.
0.0114

The reported measurements were obtained from the RNAGym collection of RNA variant scans (doi:10.1093/molbev/msab373).
